# System: Mycobacterium tuberculosis
# ASSAY_DETAILS: AntiMycobacterium tuberculosis activity 1-week GAST/Fe MIC (uM)
# Assay type: functional
# PARTICULARS: 168 h
Class (by MIC) -- low (below 0.8 µM), medium (0.8 µM to below 6 µM), high (6 µM or more)

(Q) GET /class?item= `CCOc1ccc(OCC(=O)Nc2cc(C)cc(C)c2)cc1`
(A) medium

(Q) Now the same for `COc1cccc(OCC(=O)c2ccc(Br)cc2)c1`
(A) high

(Q) Queued: `O=[N+]([O-])c1cn2c(n1)OC[C@@H](OCc1ccc(OC(F)(F)F)cc1)C2`
(A) low

(Q) Also `c1cncc(NCc2ccc(-c3cc4ccncc4cc3OC3CCNCC3)s2)c1` ?
(A) medium

(Q) Query `CCOC(=O)c1c(NC(=O)c2c(F)c(F)c(F)c(F)c2F)sc(C(N)=O)c1C` next
(A) low

(Q) And for `NC(=O)c1cc(Br)ccc1OCCOc1ccccc1` ?
(A) high

(Q) Proceed to `CCOc1ccc(-c2nc(CNCCc3ccc(F)cc3)cs2)cc1`
(A) high

(Q) Same read-out for `c1ccc(-c2nc(NC3CCCCC3)cc(C3CC3)n2)nc1` ?
(A) high

(Q) Also check `O=C(NCCc1c[nH]c2ccccc12)c1cc2ccccc2oc1=O`
(A) low
